Ref: ChEMBL document CHEMBL5344445

Test details: Induction of nociception in Swiss mouse at 2 ug, I.PL incubated for 60 mins by von frey test relative to control
Type: toxicity
Condition notes: in vivo, other, 1 h, at 2 µg
Examples of substances with documented Activity follow.
Use % as the unit, but write only the number.

The examples below pair each entry with its known result.
{"Substance": "H-ILTGKLKCK-OH", "Activity [%]": 41}
{"Substance": "H-DEGPKSDCKP-OH", "Activity [%]": 71}
{"Substance": "H-KETNAKPPA-OH", "Activity [%]": 41}

For the substance H-AEIDFSGIPEDIIKQI-OH , give its reported Activity.
71

----------
hemolysis at 2 h, up to 500 µM by entry:
Test details: Hemolytic activity in Wistar rat RBC at 5 to 500 uM incubated for 120 mins
Assay type: toxicity, cell-based, Erythrocyte
Condition notes: Wistar, red blood cells (erythrocytes), dose 5-500 µM, read-out: Activity

Answer with the recorded hemolysis at 2 h, up to 500 µM for the substance listed here: H-DEGPKSDCKP-OH
≤ 40%

Output measured hemolysis at 2 h, up to 500 µM for this item: H-IPEDIIKK-OH
≤ 40%

Recall and state the measured hemolysis at 2 h, up to 500 µM for H-ILPNDK-OH .
≤ 40%

----------
Test details: Induction of nociception in Swiss mouse at 2 ug, I.PL incubated for 180 mins by von frey test relative to control
Type: toxicity
Condition notes: in vivo, other, 3 h, dose 2 µg
Observation type: Activity

{"Substance": "H-GLREKHVQ-OH", "Activity": "Non-Toxic"}
{"Substance": "H-ILPNDK-OH", "Activity": "Non-Toxic"}
{"Substance": "H-KHFGKDSNFPF-NH2", "Activity": "Non-Toxic"}
{"Substance": "H-GKGKEILGK-OH", "Activity": "Non-Toxic"}

Could you now consider this next substance?
# return recorded Activity for entry H-IPEDIIKK-OH
Non-Toxic

----------
System: Erythrocyte
Test details: Hemolytic activity in Wistar rat RBC at 5 to 500 uM incubated for 120 mins
Assay type: toxicity, cell-based
Condition notes: erythrocyte, 2 h, 500 µM, dose 5-500 µM
Observation type: Activity

{"Substance": "H-AEIDFSGIPEDIIKQI-OH", "Activity": "Non-Toxic"}
{"Substance": "H-SESNTCG-OH", "Activity": "Non-Toxic"}
{"Substance": "H-KHFGKDSNFPF-NH2", "Activity": "Non-Toxic"}
{"Substance": "H-GLREKHVQ-OH", "Activity": "Non-Toxic"}
{"Substance": "H-KETNAKPPA-OH", "Activity": "Non-Toxic"}

Note Activity for the substance shown: H-GKGKEILGK-OH
Non-Toxic

Return Activity for the following substance: H-KPVEPVG-OH
Non-Toxic

Give Activity for H-ILTGKLKCK-OH
Non-Toxic

----------
Test details: Induction of nociception in Swiss mouse at 2 ug, I.PL incubated for 300 mins by von frey test relative to control
Format: toxicity
Condition notes: in vivo, other, 5 h, at 2 µg
Observation type: Activity

Previously resolved entries follow.
{"Substance": "H-AEIDFSGIPEDIIKQI-OH", "Activity": "71%"}
{"Substance": "H-ILTGKLKCK-OH", "Activity": "41%"}
{"Substance": "H-KETNAKPPA-OH", "Activity": "71%"}
{"Substance": "H-DEGPKSDCKP-OH", "Activity": "71%"}
{"Substance": "H-SESNTCG-OH", "Activity": "<= 40%"}

--- query ---
Recall and state the measured Activity for H-KPVEPVG-OH .
<= 40%
